# systemUnderTest: T1, 4H3606-bH
# T1 chain: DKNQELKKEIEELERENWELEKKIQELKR
# assayName: two-hybrid library CCNG1;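 also: natural log of median RNA to DNA barcode read ratio; higher means stronger binding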
readoutName: interaction score

INSERT INTO measurements (binder, readoutname, resultvalue) VALUES
  ('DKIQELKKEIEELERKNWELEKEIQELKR [4H2610-bH]', 'interaction score', 0.997),
  ('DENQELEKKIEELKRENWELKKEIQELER [4H1369-bH]', 'interaction score', 1.14);

P = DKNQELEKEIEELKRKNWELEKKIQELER [4H3189-bH]
Q = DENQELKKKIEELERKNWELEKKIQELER [4H1845-bH]
[in] Between the two listed entries P and Q , which has its interaction score at the higher number? Indicate your choice by writing its label.
[out] Q
